Target: mouse Tas2r108 (Mus musculus, UniProt Q9JKT3)
Construct: expressed in transfected cells; host or cells: HEK293T-Gα16gust44
Sequence (Q9JKT3 1-297): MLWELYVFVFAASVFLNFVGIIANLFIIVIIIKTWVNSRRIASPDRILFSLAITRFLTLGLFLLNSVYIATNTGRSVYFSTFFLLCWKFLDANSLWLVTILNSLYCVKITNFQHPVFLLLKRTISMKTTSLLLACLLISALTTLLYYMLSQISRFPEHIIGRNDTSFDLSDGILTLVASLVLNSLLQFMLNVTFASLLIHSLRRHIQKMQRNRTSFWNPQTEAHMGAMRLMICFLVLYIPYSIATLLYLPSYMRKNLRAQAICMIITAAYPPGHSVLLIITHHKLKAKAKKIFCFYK
Assay: Calcium imaging assay (FLIPR), HEK293T-Gα16gust44 cells transfected with mouse Tas2r108
Type: cell-based
Details: Time 185.562 s

[
  {
    "molecule": "C[C@H](CCC(=O)NCC(=O)O)[C@H]1CC[C@H]2[C@@H]3[C@H](O)C[C@@H]4C[C@H](O)CC[C@]4(C)[C@H]3C[C@H](O)[C@]12C [Glycocholic Acid, glycocholic acid]",
    "system": "mouse Tas2r108 (Mus musculus, UniProt Q9JKT3)",
    "RLU (RLU)": 178.039
  },
  {
    "molecule": "C[C@H](CCC(=O)O)[C@H]1CC[C@H]2[C@@H]3CC[C@@H]4C[C@H](O)CC[C@]4(C)[C@H]3C[C@H](O)[C@]12C [Deoxycholic Acid, deoxycholic acid]",
    "system": "mouse Tas2r108 (Mus musculus, UniProt Q9JKT3)",
    "RLU (RLU)": 531.86
  },
  {
    "molecule": "C[C@H](CCC(=O)NCCS(=O)(=O)O)[C@H]1CC[C@H]2[C@@H]3[C@H](O)C[C@@H]4C[C@H](O)CC[C@]4(C)[C@H]3C[C@H](O)[C@]12C [Taurocholic Acid, taurocholic acid]",
    "system": "mouse Tas2r108 (Mus musculus, UniProt Q9JKT3)",
    "RLU (RLU)": 225.962
  },
  {
    "molecule": "C[C@H](CCC(=O)O)[C@H]1CC[C@H]2[C@@H]3[C@H](O)C[C@@H]4C[C@H](O)CC[C@]4(C)[C@H]3C[C@H](O)[C@]12C [Cholic Acid, cholic acid]",
    "system": "mouse Tas2r108 (Mus musculus, UniProt Q9JKT3)",
    "RLU (RLU)": 185.91
  }
]
